system: GST-tagged Cn; assay: PEPperPRINT peptide microarray binding assay with GST-tagged Cn; settings: GST-tagged Cn, max over the spots on the chip (two locations)
Known Chip Fluorescence (max) of a selection of sequences

{"chain sequence": "ATDNQPGIVVHICADM [SeqRCN1_Daphnia_magna]", "tested system": "GST-tagged Cn", "Chip Fluorescence (max)": 1.1168}
{"chain sequence": "AKDDPPKIQVHPPEED [SeqRBMlowT_9786]", "tested system": "GST-tagged Cn", "Chip Fluorescence (max)": 1.098}
{"chain sequence": "RAMRILKCCPHPAAWN [Seqrandom_9981]", "tested system": "GST-tagged Cn", "Chip Fluorescence (max)": 1.034}
{"chain sequence": "LKDEFPEVRLNIISNL [SeqRBMlowT_1004]", "tested system": "GST-tagged Cn", "Chip Fluorescence (max)": 1.029}
{"chain sequence": "FSNKASKARRMEPLSI [SeqRBM_824]", "tested system": "GST-tagged Cn", "Chip Fluorescence (max)": 1.106}
{"chain sequence": "HVSSSSDITITPTQHR [SeqRBMlowT_2715]", "tested system": "GST-tagged Cn", "Chip Fluorescence (max)": 1.1425}
{"chain sequence": "TFWTNPQFKVTLEEPD [SeqRBMlowT_2957]", "tested system": "GST-tagged Cn", "Chip Fluorescence (max)": 1.208}
{"chain sequence": "TFWTNPQFRLTLLSPD [SeqRBMlowT_9173]", "tested system": "GST-tagged Cn", "Chip Fluorescence (max)": 1.238}
{"chain sequence": "RNPERPKLHLQGHLVA [SeqRBM_9016]", "tested system": "GST-tagged Cn", "Chip Fluorescence (max)": 1.316}
{"chain sequence": "PGCATPRIAITPTENM [SeqRBM_2983]", "tested system": "GST-tagged Cn", "Chip Fluorescence (max)": 1.167}
{"chain sequence": "TFWTNPQYRITLEEPD [SeqRBMlowT_212]", "tested system": "GST-tagged Cn", "Chip Fluorescence (max)": 1.104}
{"chain sequence": "QAVMCTAMSWCDCGQR [SeqRBM_6860]", "tested system": "GST-tagged Cn", "Chip Fluorescence (max)": 1.273}
{"chain sequence": "STSSLPTFSFSSPKPQ [SeqRBMlowT_8920]", "tested system": "GST-tagged Cn", "Chip Fluorescence (max)": 1.216}
{"chain sequence": "TFWTNPQFRIKVEDPD [SeqRBMlowT_6818]", "tested system": "GST-tagged Cn", "Chip Fluorescence (max)": 1.08}
{"chain sequence": "SYLPIIQVRMTDTGEY [SeqRBM_6285]", "tested system": "GST-tagged Cn", "Chip Fluorescence (max)": 1.118}
{"chain sequence": "GSSSSPPVDLKIPQVR [SeqRBMlowT_8820]", "tested system": "GST-tagged Cn", "Chip Fluorescence (max)": 1.178}
{"chain sequence": "KVRTALYFTWNLTERG [Seqshuffled_9698]", "tested system": "GST-tagged Cn", "Chip Fluorescence (max)": 1.275}
{"chain sequence": "LTDAAPEVVVSKPEHN [SeqRBMlowT_7696]", "tested system": "GST-tagged Cn", "Chip Fluorescence (max)": 1.26}
{"chain sequence": "QTSCLPFPVVNSQEGQ [SeqRBM_2540]", "tested system": "GST-tagged Cn", "Chip Fluorescence (max)": 1.036}
{"chain sequence": "TDHMNPQITISSKEND [SeqRBM_3457]", "tested system": "GST-tagged Cn", "Chip Fluorescence (max)": 1.164}
{"chain sequence": "PAGTGVGIVITVTEAE [SeqRBMlowT_157]", "tested system": "GST-tagged Cn", "Chip Fluorescence (max)": 1.221}
{"chain sequence": "RNPGTFPLTLEGHKKQ [SeqRBMlowT_6333]", "tested system": "GST-tagged Cn", "Chip Fluorescence (max)": 1.229}
{"chain sequence": "TFWTNPQYRLKLEEVD [SeqRBMlowT_1143]", "tested system": "GST-tagged Cn", "Chip Fluorescence (max)": 1.092}
{"chain sequence": "DAHACAVLGIGSFSLL [SeqRBM_9753]", "tested system": "GST-tagged Cn", "Chip Fluorescence (max)": 1.031}
{"chain sequence": "LCVTGRERIAEDWLRP [Seqrandom_9974]", "tested system": "GST-tagged Cn", "Chip Fluorescence (max)": 1.2052}
{"chain sequence": "PSLFPDALGLGQFSLS [SeqCRZ1_Aureobasidium_pullulans]", "tested system": "GST-tagged Cn", "Chip Fluorescence (max)": 1.272}
